The origin of these recorded values is ChEMBL document CHEMBL3988442.

Target: Shiga toxin 2 (Escherichia coli O157:H7) (UniProt P09385+P09386)
Assay: E. coli 0.157:H7 Shiga Toxin SOP - stx2 screening assay
Assay type: functional
Parameters: scale not given: direction of the effect not stated beside the values
Conditions: 30 µM
Experimental Endpoint: Percent Effect (%)
Answers are plain numbers, in %.

{"columns": ["Compound", "Recorded Result"],
 "data": [
  ["Cc1cnn(CCNCc2nc(Cc3ccccc3)no2)c1", 25],
  ["COc1cnc(N2CCC(Oc3ccccc3OC)(C(=O)O)CC2)nc1", -0.671],
  ["O=C(NCc1cc(=O)n2c(n1)CN(CC1CCOC1)CCC2)C1CC1 (configuration not stated)", -24.3],
  ["O=C(Cn1ccc2ccc(Br)cc21)NCc1ccc(C(=O)O)cc1", -5.49],
  ["COCC(=O)N1CCCn2c(CN3CCCCC3)nnc2C1", -19.1],
  ["O=C(c1cc(Cl)c2c(c1)OCO2)N1CCN(c2ccccn2)CC1", 18.3],
  ["Cc1cnc2n(c1=O)CC(C(=O)NC1CC1)CS2 (configuration not stated)", 0.421],
  ["CS(=O)(=O)CC(=O)N1C[C@H]2CCC[C@@]2(COCc2ccccn2)C1", -6.39],
  ["CCc1cc(=O)[nH]c2nnc(SCC(=O)OC)n12", -6.54],
  ["CCNC(=O)N(C)C(c1cccc(F)c1)c1ccccn1 (configuration not stated)", -5.85]
]}

// input: 2 compounds below; output: Percent Effect for each
1. O=C(Nc1ccc(F)cc1)N1C[C@H]2CC[C@@H]1CN(Cc1cccnc1)C2
2. Cc1oncc1C(=O)NCc1cc(=O)n2c(n1)CN(C)CCC2

1. -26.1
2. -2

Give measured Percent Effect for every item shown.
1. CNc1nc(C(=O)N2CCCC(c3nccn3CC3CCC3)C2)cs1 (configuration not stated)
2. Cc1nc(C)n(CC2CCCN2Cc2nc(C3CC3)no2)n1 (configuration not stated)

1. 2.21
2. -16.4
